Sourced from patent US6451814B1

PROPERTY NAME: melting point

Query block: Item under review: COc1cccc(CNC(=O)N2CCC(Nc3ccc(CCNC[C@H](O)COc4ccc(O)cc4)cc3)CC2)c1OC . Reported melting point?
Result block: 87 to 91 °C

Query block: Entry to check: CCCCCCCCNC(=O)Nc1ccc(S(=O)(=O)N2CCC(Nc3ccc(CCNC[C@H](O)c4ccc(O)c(NS(C)(=O)=O)c4)cc3)CC2)cc1
Result block: 134 to 136 °C

====

Recorded melting point, one value per entry.
Counter-ions that a name gives are not always drawn.

Here is how some molecules turned out for melting point.
# MOLECULE, melting point
data = [
    ("CCCCCCCCNC(=O)N1CCC(Nc2ccc(CCNCC(O)c3ccc(O)c(C(N)=O)c3)cc2)CC1 (stereo not drawn) (as salt: salt)", "101 to 104 °C"),
    ("NC(=O)N1CCC(Nc2ccc(CCNC[C@H](O)COc3ccc(O)cc3)cc2)CC1", "84 to 89 °C"),
]

--- query ---
Query block: I'd like to know its melting point. The molecule in question is O=C(NCc1c(F)cccc1F)N1CCC(Nc2ccc(CCNC[C@H](O)COc3ccc(O)cc3)cc2)CC1
Result block: 80 to 84 °C

====

Some molecules, each annotated with its measured EC50.
target: human β3-adrenergic receptor (Homo sapiens, UniProt P13945); construct: Full length β3 AR clones (402 amino acids) containing the last 6 amino acids of hβ3—AR are prepared; expressed in transfected cells; host or cells: CHO cells; test: cAMP response (SPA kit) in CHO cells transfected with human β3 adrenergic receptor; format: cell-based; details: EC50(β3, μM), CHO cells expressing human β3-AR; 10^-9 M to 10^-5 M; 30 min at 37° C.; cAMP by SPA
Sequence (P13945 whole entry): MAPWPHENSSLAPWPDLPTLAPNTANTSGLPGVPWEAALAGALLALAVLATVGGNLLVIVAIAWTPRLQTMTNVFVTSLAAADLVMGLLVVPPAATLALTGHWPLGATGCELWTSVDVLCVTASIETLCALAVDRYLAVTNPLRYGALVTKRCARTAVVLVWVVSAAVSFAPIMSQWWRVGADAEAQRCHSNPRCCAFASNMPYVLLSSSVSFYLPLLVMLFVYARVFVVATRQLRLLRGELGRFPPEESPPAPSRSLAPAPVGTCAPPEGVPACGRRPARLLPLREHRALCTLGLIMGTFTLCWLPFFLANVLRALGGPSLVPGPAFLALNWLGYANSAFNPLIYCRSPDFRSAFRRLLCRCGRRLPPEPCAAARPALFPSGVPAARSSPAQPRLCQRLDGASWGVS
Numbers only; they are read as µM.

# MOLECULE, PROPERTY NAME, ENDPOINT VALUE
measured = [
    ("CN(C)C(=O)Oc1ccc(CCNC(=O)N2CCC(Nc3ccc(CCNC[C@H](O)COc4ccc(O)cc4)cc3)CC2)cc1 [Example 74]", "EC50", 0.045),
]

Query block: Entry CN(C)C(=O)Oc1ccc(CNC(=O)N2CCC(Nc3ccc(CCNC[C@H](O)COc4ccc(O)cc4)cc3)CC2)c(F)c1 [Example 84] : reported EC50 = ?
Result block: 0.096

====

target: human β3-adrenergic receptor (Homo sapiens, UniProt P13945); construct: Full length β3 AR clones (402 amino acids) containing the last 6 amino acids of hβ3—AR are prepared; expressed in transfected cells; host or cells: CHO cells; assay: cAMP response (SPA kit) in CHO cells transfected with human β3 adrenergic receptor; format: cell-based; settings: maximal response of compound compared to maximal response of isoproterenol at 10^-5 M; CHO cells, human β3-AR
PROPERTY NAME: IA(β3)
Could you respond with only the numeric value?

Query block: // returns reported IA(β3) for input CC(=O)Nc1ccc(S(=O)(=O)N2CCC(Nc3ccc(CCNC[C@H](O)COc4ccc(O)cc4)cc3)CC2)cc1
Result block: 1.1

Query block: Consider next the molecule CCCCCCCCNC(=O)N1CCC(Nc2ccc(CCNC[C@H](O)COc3ccc(O)c4c3CCC(=O)N4)cc2)CC1 in the same way.
Result block: 0.67

Query block: Same for CCCCCCCCNC(=O)Nc1ccc(S(=O)(=O)N2CCC(Nc3ccc(CCNC[C@H](O)c4ccc(O)c(NS(C)(=O)=O)c4)cc3)CC2)cc1
Result block: 1.1

Query block: And the next one, O=C(Nc1ccccc1)N1CCC(Sc2ccc(CCNC[C@H](O)COc3ccc(O)cc3)cc2)CC1 ?
Result block: 0.9

====

molecular target: human β3-adrenergic receptor (Homo sapiens, UniProt P13945); construct: Full length β3 AR clones (402 amino acids) containing the last 6 amino acids of hβ3—AR are prepared; expressed in transfected cells; host or cells: CHO cells; assay: cAMP response (SPA kit) in CHO cells transfected with human β3 adrenergic receptor; assay type: cell-based; conditions: maximal response of compound compared to maximal response of isoproterenol at 10^-5 M; CHO cells, human β3-AR
PROPERTY NAME: IA(β3)
I only need the number, thanks.

# COMPOUND, IA(β3)
measured = [
    ("O=C(NCC1(c2ccccc2)CCCC1)N1CCC(S(=O)(=O)c2ccc(CCNC[C@H](O)COc3ccc(O)cc3)cc2)CC1", 0.82),
    ("COc1cccc(CCNC(=O)N2CCC(Nc3ccc(CCNC[C@H](O)COc4ccc(O)cc4)cc3)CC2)c1", 1.21),
    ("CCCCCCCCNC(=O)N1CCC(Nc2ccc(CCNC[C@H](O)COc3ccc(O)cc3Cl)cc2)CC1", 1),
    ("CCOC(=O)C1CCN(C(=O)N2CCC(Nc3ccc(CCNC[C@H](O)c4ccc(O)c(NS(C)(=O)=O)c4)cc3)CC2)CC1", 0.82),
]

Okay, next one:
Query block: What does the record list as IA(β3) for NC(=O)N1CCC(Nc2ccc(CCNC[C@H](O)COc3ccc(O)cc3)cc2)CC1 ?
Result block: 1

====

Structures can show the parent of a compound that is named as a salt.
Below: a set of entries, each annotated with reported melting point.

Worked examples follow.
# COMPOUND, melting point
rows = [
    ("CCNC(=O)N1CCC(Nc2ccc(CCNC[C@H](O)COc3ccc(O)cc3)cc2)CC1 (as salt: salt)", "81 to 85 °C"),
    ("COc1cc(OCCCOc2ccccc2)ccc1CCNC(=O)N1CCC(Nc2ccc(CCNC[C@H](O)COc3ccc(O)cc3)cc2)CC1", "67 to 69 °C"),
    ("CCN(CC)C(=O)N1CCC(Nc2ccc(CCNC[C@H](O)COc3ccc(O)cc3)cc2)CC1", "61 to 65 °C"),
]

Query block: Which melting point is reported for this compound? CCCCCCCCNC(=O)N1CCC(Nc2ccc(CCNC[C@H](O)c3cccc(Cl)c3)cc2)CC1 (as salt: salt)
Result block: 168 to 171 °C

Query block: Record: CCCCCCCCNC(=O)N1CCC(S(=O)(=O)c2ccc(CCNC[C@H](O)COc3ccc(O)c(C)c3)cc2)CC1
Result block: 58 to 71 °C

Query block: Request: O=C(Nc1ccccc1)N1CCC(Sc2ccc(CCNC[C@H](O)COc3ccc(O)cc3)cc2)CC1
Result block: 121 °C

====

molecular target: human β3-adrenergic receptor (Homo sapiens); construct: Full length β3 AR clones (402 amino acids) containing the last 6 amino acids of hβ3—AR are prepared; expressed in transfected cells; host or cells: CHO cells; assay: cAMP response (SPA kit) in CHO cells transfected with human β3 adrenergic receptor; assay type: cell-based; details: CHO cells expressing human β3-AR; 10^-9 M to 10^-5 M; 30 min at 37° C.; cAMP by SPA; read-out: EC50(β3)
// reported EC50 for each item listed

Below are worked cases with known answers.
# TEST SMILES, EC50
measured = [
    ("CCCCCCCCNC(=O)N1CCC(Nc2ccc(OCCNC[C@H](O)COc3ccc(O)cc3)cc2)CC1", "0.07 µM"),
    ("CCCCCC(=O)N1CCC(Nc2ccc(CCNC[C@H](O)COc3ccc(O)cc3)cc2)CC1", "0.074 µM"),
]

Query block: Please look up its EC50: O=C(NCC(F)(F)F)N1CCC(Nc2ccc(CCNC[C@H](O)COc3ccc(O)cc3)cc2)CC1
Result block: 0.066 µM

====

target: human β3-adrenergic receptor (Homo sapiens); construct: Full length β3 AR clones (402 amino acids) containing the last 6 amino acids of hβ3—AR are prepared; expressed in transfected cells; host or cells: CHO cells; assay: cAMP response (SPA kit) in CHO cells transfected with human β3 adrenergic receptor; assay type: cell-based; conditions: maximal response of compound compared to maximal response of isoproterenol at 10^-5 M; CHO cells, human β3-AR
PROPERTY NAME: IA(β3)
Field format: numeric only.

# MOLECULE, TGT, PROPERTY NAME, ENDPOINT VALUE
rows = [
    ("O=C(c1cc2cccc([N+](=O)[O-])c2[nH]1)N1CCC(Nc2ccc(CCNC[C@H](O)COc3ccc(O)cc3)cc2)CC1 [Example 95]", "human β3-adrenergic receptor (Homo sapiens)", "IA(β3)", 0.9),
    ("CCCCCCCCNC(=O)N1CCC(N(C(C)=O)c2ccc(CCNC[C@H](O)COc3ccc(O)cc3)cc2)CC1 [Example 8]", "human β3-adrenergic receptor (Homo sapiens)", "IA(β3)", 0.82),
    ("CCCCCC(=O)N1CCC(Nc2ccc(CCNC[C@H](O)COc3ccc(O)cc3)cc2)CC1 [Example 103]", "human β3-adrenergic receptor (Homo sapiens)", "IA(β3)", 0.9),
    ("Cc1ccc(S(=O)(=O)N2CCC(Nc3ccc(CCNC[C@H](O)COc4ccc(O)cc4)cc3)CC2)cc1 [Example 112]", "human β3-adrenergic receptor (Homo sapiens)", "IA(β3)", 0.89),
    ("COc1cc(OCCCOc2ccccc2)ccc1CCNC(=O)N1CCC(Nc2ccc(CCNC[C@H](O)COc3ccc(O)cc3)cc2)CC1 [Example 71]", "human β3-adrenergic receptor (Homo sapiens)", "IA(β3)", 0.94),
]

Query block: # IA(β3) lookup, item O=C(NCc1ccccc1F)N1CCC(Nc2ccc(CCNC[C@H](O)COc3ccc(O)cc3)cc2)CC1 [Example 26]
Result block: 0.91

Query block: Another molecule to check: CCCCCCCCNC(=O)N1CCC(Nc2ccc(CCNC[C@H](O)COc3ccc(N)nc3)cc2)CC1 [Example 5]
Result block: 0.68

Query block: Now try Cc1ccsc1C(=O)N1CCC(Nc2ccc(CCNC[C@H](O)COc3cccc4[nH]c(=O)[nH]c34)cc2)CC1 [Example 101] .
Result block: 0.63
